Protocol summary: Clearance in CD-1 mouse at 5 mg/kg, ip measured after 24 hrs by LC-MS/MS analysis
Format: ADME, organism-based
Cond: in vivo
Experimental readout: CL/F (mL/min/kg)

| Substance smiles | Reported value |
| --- | --- |
| COC(=O)N1CCN2c3cc4c(N[C@H](C)c5cccc(C(F)F)c5F)nnc(C)c4cc3OC[C@H]2C1 | 1.7 |

====

Protocol summary: Half life in CD-1 mouse at 20 mg/kg, po measured after 24 hrs by LC-MS/MS analysis
Format: ADME, organism-based
Cond: in vivo
Experimental readout: half-life (h)

| Substance smiles | Result units | Reported value |
| --- | --- | --- |
| COC(=O)N1CCN2c3cc4c(N[C@H](C)c5cccc(C(F)F)c5F)nnc(C)c4cc3OC[C@H]2C1 | h | 6.4 |
